# assay_protocol: The octanol-water partition coefficient at pH 6.4
# Type: physicochemical
metric: logD
Keep it simple and answer with nothing but the number.

CC(C)NCC(O)COc1cccc2[nH]c3ccccc3c12 (configuration not stated) : 0.68

Query: What does the data say about its logD? Entry: CC(CF)NCC(O)COc1cccc2[nH]c3ccccc3c12 (configuration not stated)
Reply: 1.76

====

Listed below: logD values for each entry.
# assay_protocol: The octanol-water partition coefficient at pH 9.4
# Assay type: physicochemical
Keep it simple and answer with nothing but the number.

CC(CF)NCC(O)COc1cccc2[nH]c3ccccc3c12 (configuration not stated) : 2.8

// next item, logD requested
Query: What does the data say about its logD? Entry: CC(C)NCC(O)COc1cccc2[nH]c3ccccc3c12 (configuration not stated)
Reply: 2.44
